experiment: Intraocular and retinal drug concentration in rats after eye drops (HPLC); format: in vivo; settings: both sexes, SD, rat, retina, topical, 10 μL of 2% solution per eye, twice a day for 7 days, 1 h after administration, 2% eye drops twice a day, read-out: Content of test compound in Retina
attribute_measured: concentration at 1 h after the second eye drop on Day 7

smiles_str: CCOc1ccc(-c2c(F)cc(NC(=O)N3CCC(C(C)(C)C)CC3)cc2-c2nn[nH]n2)cn1
assay_value: 55000 ng/g

smiles_str: CCOc1ccc(-c2ccc(NC(=O)N[C@H]3CC[C@H](C)CC3)cc2-c2nn[nH]n2)cn1
assay_value: 64800 ng/g

---

Assay: Pharmacokinetics in vivo in rats
Set-up: species or system SD rats
Conditions: SD, rat, plasma; 3 mg/kg intravenous injection in rats; read-out: Apparent volume of distribution (Vss)
Protocol: 1. […] At different time points after administration, blood samples were collected into EDTA blood sample collection tubes. Plasma was separated by centrifugation and stored at −20° C. for the analysis afterwards. 2. […] 4. Analysis of the results: pharmacokinetic parameters were fit and calculated by WinNonlin software using statistical […] method, mainly including kinetic parameters Tmax, t1/2, Cmax, AUC0-t, AUC0∞, Cl, Vd, F, etc. […]
Some compounds, each annotated with its measured Vd.

smiles_str: CCOc1ccc(-c2c(F)cc(NC(=O)N3CCC(C(C)(C)C)CC3)cc2-c2nn[nH]n2)cn1
quantity_unit: L/kg
Vd: 0.328

smiles_str: CCOc1ccc(-c2ccc(NC(=O)N[C@H]3CC[C@H](C)CC3)cc2-c2nn[nH]n2)cn1
quantity_unit: L/kg
Vd: 0.156

---

Measured bioavailability by item
assay: Pharmacokinetics in vivo in rats; design: species or system SD rats; conditions: SD, rat, plasma; 3 mg/kg oral administration in rats (Table 2A)

smiles_str: CCOc1ccc(-c2ccc(NC(=O)N[C@H]3CC[C@H](C)CC3)cc2-c2nn[nH]n2)cn1
bioavailability (%): 3.6
--
smiles_str: CCOc1ccc(-c2c(F)cc(NC(=O)N3CCC(C(C)(C)C)CC3)cc2-c2nn[nH]n2)cn1
bioavailability (%): 6.1

---

Target: CYP3A4 (Homo sapiens, UniProt P08684)
Construct: from tissue; host or cells: human liver microsomes
Sequence (P08684 whole entry): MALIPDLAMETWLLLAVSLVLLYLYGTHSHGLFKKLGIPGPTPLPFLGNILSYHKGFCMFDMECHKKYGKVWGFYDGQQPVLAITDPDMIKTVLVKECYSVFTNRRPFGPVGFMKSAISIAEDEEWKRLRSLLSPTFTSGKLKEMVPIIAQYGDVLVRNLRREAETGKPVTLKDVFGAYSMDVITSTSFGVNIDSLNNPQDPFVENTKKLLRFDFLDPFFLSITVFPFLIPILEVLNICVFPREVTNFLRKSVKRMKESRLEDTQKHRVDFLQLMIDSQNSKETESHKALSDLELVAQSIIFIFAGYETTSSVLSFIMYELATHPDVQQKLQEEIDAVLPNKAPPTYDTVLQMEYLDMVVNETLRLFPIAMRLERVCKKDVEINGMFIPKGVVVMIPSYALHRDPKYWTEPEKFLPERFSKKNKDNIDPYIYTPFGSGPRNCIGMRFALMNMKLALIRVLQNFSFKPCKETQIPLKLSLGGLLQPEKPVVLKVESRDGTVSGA
Experiment: CYP450 inhibition in human liver microsomes (substrate method, LC-MS/MS)
Format: in vitro ADME
Conditions: read-out: CYP inhibition IC50 [μM], 3A4
Description: In addition, the LC-MS/MS method was used to determine the substrate metabolites of 5 major subtypes of human liver microsomal CYP450 enzymes (including CYP1A2, CYP2D6, CYP2C8, CYP2C9, and CYP3A4). The substrate method was used to determine the activity of human liver microsomal CYP450 enzyme. […] The CYP450 enzyme activity was calculated by measuring the generation rate of 3 specific substrate metabolites in the incubation solution. […]

smiles_str: CCOc1ccc(-c2c(F)cc(NC(=O)N3CCC(C(C)(C)C)CC3)cc2-c2nn[nH]n2)cn1
IC50, µM: 50

---

molecular target: human B1R (Homo sapiens, UniProt P46663); test: FLIPR calcium ion flux assay, inhibitory activity against human B1R; settings: HEK293 cells stably expressing human B1R; agonist [Lys-des-Arg9]-Bradykinin 4.6 nM (EC80); FLIPR method
Sequence (P46663 whole entry): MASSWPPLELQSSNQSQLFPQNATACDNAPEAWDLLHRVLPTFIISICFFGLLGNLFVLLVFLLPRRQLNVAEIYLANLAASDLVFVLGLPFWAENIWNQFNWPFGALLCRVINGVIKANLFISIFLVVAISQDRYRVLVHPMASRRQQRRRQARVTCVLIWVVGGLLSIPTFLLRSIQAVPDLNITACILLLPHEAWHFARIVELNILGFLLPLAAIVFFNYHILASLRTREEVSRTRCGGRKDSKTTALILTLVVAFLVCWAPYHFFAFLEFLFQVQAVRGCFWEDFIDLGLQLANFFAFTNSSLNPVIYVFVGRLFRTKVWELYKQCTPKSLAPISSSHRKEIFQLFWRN
pIC50: −log10 of the molar value.
Quick rule: pIC50 of at least 7 means fulfilled, below that means not fulfilled.

smiles_str: Cn1ncc2cc(-c3c(F)cc(NC(=O)N4CCC(C(C)(C)C)CC4)cc3-c3nn[nH]n3)ccc21
discrete_label: fulfilled

smiles_str: CC(C)(C)c1cn(-c2c(F)cc(NC(=O)N3CCC(C(C)(C)C)CC3)cc2-c2nn[nH]n2)cn1
discrete_label: fulfilled

smiles_str: COc1ccc(-c2ccc(NC(=O)N[C@H]3CC[C@H](C)CC3)cc2-c2nn[nH]n2)cc1OC
discrete_label: fulfilled

smiles_str: C[C@H]1CC[C@H](NC(=O)Nc2ccc(OC3CCOCC3)c(-c3nn[nH]n3)c2)CC1
discrete_label: not fulfilled

smiles_str: CC(C)(C)[C@H]1CC[C@@H](NC(=O)Nc2ccc(-c3ccc4c(c3)OCO4)c(-c3nn[nH]n3)c2)CC1
discrete_label: not fulfilled

This collection of values is drawn from patent US20250353835A1.
